Data provenance: patent US20020031761A1

Target: T1, purified, recombinant parvovirus B19 capsid proteins VP1 and VP2 (VP1-VP2) (human parvovirus B19, UniProt P07299 1-781; P07299 1-554)
T1 construct: Surrogate target: partially purified/purified recombinant VP1 + VP2 preparation; Made by methods of US 5,498,413 or WO 91/12269
Assay: phage ELISA; VP1-VP2 coated on dextrin plates, HRP anti-M13 detection
Experimental: From convergent screens of phage display libraries, eluted phage were propagated and 376 phage isolates were selected randomly and individually tested for binding to VP1-VP2 by standard ELISA techniques, using a polyclonal anti-phage antibody to detect bound phage. […] The bound antibody was detected by adding 100 μl per well of two-component TMB (tetramethylbenzidine; Kirkegaard & Perry).
Positions of bridges follow the written chain, without caps; N, C: chain ends. No end group written: not given here.
readout-type: ELISA signal
Respond with the number and no other words.

Answered cases to consult:
FCRFWYGCHP (peptide, not shown: large carriers, disulfide 2-8 (inferred); also: displayed on M13 phage, coat protein fusion and flanking residues not given here, Tested as phage isolate displaying the peptide (TN7 library); First template position printed as '-' (10 residues)) [TN7 isolate E11]; 0.6
FFCSFWHGGCDD (peptide, not shown: large carriers, disulfide 3-10 (inferred); also: displayed on M13 phage, coat protein fusion and flanking residues not given here, Tested as phage isolate displaying the peptide (TN8 library); The synthetic peptide form is a separate molecule; also called TN8 isolate A01) [A01-TN8 phage isolate]; 1.6
FFCALWPSCHH (peptide, not shown: large carriers, disulfide 3-9 (inferred); also: displayed on M13 phage, coat protein fusion and flanking residues not given here, Tested as phage isolate displaying the peptide (TN7 library)) [TN7 isolate B11]; 0.5
FCQLWWPFQCA (peptide, not shown: large carriers, not fully specified (bridges); printed as Phe-Cys-Gln-Leu-Trp-Trp-Pro-Phe-Gln-Cys-Ala; cysteine pairing not given here, Tested as phage isolate (TN9 library)) [TN9 isolate A06]; 0.7

Query string: State the recorded ELISA signal for this entry: FSCLWFPFCPD (peptide, not shown: large carriers, disulfide 3-9 (inferred); also: displayed on M13 phage, coat protein fusion and flanking residues not given here, Tested as phage isolate displaying the peptide (TN7 library)) [TN7 isolate A12]
Result string: 0.5
